Listing of recorded % Inhib. of IL-5 production (TSLP treated human PBMC + IL-2 + IL-25), Expt. 2 by entry.
Target: human IL-17RA on cells (human PBMC; human foreskin fibroblasts) (human, UniProt Q96F46 33-866)
Test: cell-based or functional assay
Answer in %, number only, no unit symbol.

Some binders with recorded % Inhib. of IL-5 production (TSLP treated human PBMC + IL-2 + IL-25), Expt. 2:
# BINDER, UNIT TEXT, REPORTED RESULT
rows = [
    ("2.98.1 (antibody, V domains shown) VH: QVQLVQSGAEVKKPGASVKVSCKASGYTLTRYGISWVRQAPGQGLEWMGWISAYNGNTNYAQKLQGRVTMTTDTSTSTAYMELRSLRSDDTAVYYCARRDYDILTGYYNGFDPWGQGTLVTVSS VL: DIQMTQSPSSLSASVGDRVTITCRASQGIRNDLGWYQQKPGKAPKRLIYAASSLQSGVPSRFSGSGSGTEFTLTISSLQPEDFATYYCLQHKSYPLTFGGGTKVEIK", "%", 79),
    ("4.16.1 (antibody, IgG2, V domains shown) VH: QVQLVQSGAEVKKPGASVKVSCKASGYTLTSYGISWVRQAPGQGLEWMGWISAYSGNTKYAQKFQGRVTMTTDTSTSTAYMELRSLRSDDTAVYYCARRQLALDYWGQGTLVTVSS VL: EIVMTQSPATLSVSPGERATLSCRASQSISSNLAWYQQKPGQAPRLLIYGASTRATGIPARFSDNGSGTEFTLTISSLQSEDFAVYFCQQYDTWPLTFGGGTKVEIK", "%", 77),
    ("3.381.1 (antibody, IgG2, V domains shown) VH: QVQLVQSGAEVKKPGASVKVSCKASGYTFTRYGISWVRQAPGQGLEWMGWISAYSGNTNYAQKLQGRVTMTTDTSTSTAYMELRSLRSDDTAVYYCARRQLYFDYWGQGTLVTVSS VL: EIVMTQSPATLSVSPGERVTLSCRASQSVSSNLAWFQQKPGQAPRPLIYDASTRAAGIPARFSGSGSGTDFTLTISSLQSEDFAVYYCQQYDNWPLTFGGGTKVEIK", "%", 82),
]

Moving on to another binder below.
So what's the measured % Inhib. of IL-5 production (TSLP treated human PBMC + IL-2 + IL-25), Expt. 2 for this one? 2.46.1 (antibody, V domains shown) VH: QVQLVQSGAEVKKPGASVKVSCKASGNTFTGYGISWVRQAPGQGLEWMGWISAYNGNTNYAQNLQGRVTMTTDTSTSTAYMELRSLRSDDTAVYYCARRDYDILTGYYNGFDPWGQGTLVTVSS VL: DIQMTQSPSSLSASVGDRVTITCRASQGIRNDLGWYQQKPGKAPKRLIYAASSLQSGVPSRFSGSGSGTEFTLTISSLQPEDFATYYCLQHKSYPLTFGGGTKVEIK
6
